These entries and their values trace back to PubChem BioAssay (NCI).

test system: MALME-3M melanoma; assay: NCI-60 one-dose screen, 48 h (100 = growth as untreated, 0 = no growth, -100 = all killed); settings: 10 µM unless noted
This is part of a sample that, as a whole, favours compounds with a hit. Of some 83,000 tested, about 20% had one in any assay. Calls of active or inactive are those of the source. The calls were made as follows: active = growth percent below 10; inactive = the rest.
metric_name: growth

Form field growth, entry Cn1cc(CC2CC(=O)N(c3ccccc3)C2=O)sc1=NC(=O)c1ccccc1 (centres undefined) : 89.9% (inactive)

Per the records, this compound ( `Cn1ccnc1C(=O)/C=C/c1ccc(CC(=O)Nc2ccc(Cl)cc2)cc1` ) has growth equal to 87.6% (inactive)

Field growth (entry NC1[C@H](c2c[nH]c3ccccc23)c2c([nH]c3ccccc23)[C@H]1c1c[nH]c2ccccc12 (some centres undefined) ) reads 88.9% (inactive)

For this compound ( `CCCCCN1C=C/C(=C\C(=O)N(C)c2ccccc2Br)c2ccccc21` ), measured growth is 91% (inactive)
